- Test system: HCT-15 colon
- ASSAY_COMMENT: NCI tumour cell line growth inhibition, 48 h
MEASUREMENT_LABEL: TGI

MOLECULE | TGI
CC1=CCC[C@@](C)(O)[C@@H]2C[C@H]3C(CSc4ccccc4)C(=O)O[C@H]3[C@@H](O2)[C@H](C)CCC1 (stereo partly specified) | 67.9 µM

Kindly give each listed record's TGI.
1. N#CC1=C(C#N)/C(=C(\C#N)C(C#N)C#N)N=C1N
2. NC(=O)C12C3C4C1C1C2C3C41C(N)=O (stereo unspecified)
3. COC(=O)c1c2c(c(C)[n+]([O-])c1C)C(=O)C(NCc1cccc(OC)c1)=CC2=O
4. CCOC(=O)C1=C(O)c2ccccc2C(=O)C1=O

["64.3 µM", "> 100 µM", "4.73 µM", "> 100 µM"]

What value of TGI has been recorded for this entry: "O=c1n(-c2ccccc2)c(=O)n2n1C1CCC2CC1"
> 100 µM
